tested on: Mus musculus; assay: In vivo antinociceptive activity using mouse tail flick test, subcutaneous administration; type: functional; details: Mus musculus, Tail, sc; read-out: ED50
RESULT_TYPE: log10 ED50 (log10 of the value in µmol/kg)

COMPOUND	log10 ED50
O=C(Cc1ccc(C(F)(F)F)cc1)N1CCc2sccc2C1CN1CCCCC1 (configuration not stated)	-0.90
O=C(Cc1ccc(Cl)c(Cl)c1)N1CCc2ccsc2C1CN1CCCC1 (configuration not stated)	-1.14
O=C(Cc1ccc(Cl)c(Cl)c1)N1CCc2ccccc2C1CN1CCCC1 (configuration not stated)	-1.44
O=C(Cc1ccc(Cl)c(Cl)c1)N1CCCC[C@H]1CN1CCCC1	-0.87
O=C(Cc1ccc(C(F)(F)F)cc1)N1CCCC[C@H]1CN1CCCC1	-1.43
O=C(Cc1ccc(Cl)c(Cl)c1)N1CCc2ccccc2C1CN1CCC1 (configuration not stated)	1.37
